Molecular target: human FPR1 (Homo sapiens (Human))
Sequence (P21462 whole entry): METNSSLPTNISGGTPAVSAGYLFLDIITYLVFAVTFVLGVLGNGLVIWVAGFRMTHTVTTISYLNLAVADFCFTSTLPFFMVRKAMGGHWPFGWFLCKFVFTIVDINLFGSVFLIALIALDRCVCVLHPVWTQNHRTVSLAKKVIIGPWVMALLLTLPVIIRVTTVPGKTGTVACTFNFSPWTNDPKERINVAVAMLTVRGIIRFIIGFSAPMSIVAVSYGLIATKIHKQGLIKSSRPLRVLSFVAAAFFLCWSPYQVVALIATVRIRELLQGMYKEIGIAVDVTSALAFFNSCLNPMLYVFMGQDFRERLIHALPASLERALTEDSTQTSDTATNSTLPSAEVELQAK
Assay: FPR1 cyclic adenosine monophosphate (cAMP) assay
Type: cell-based
Conditions: CHO cells overexpressing human FPR1; forskolin 10 μM, IBMX 200 μM; inhibition of cAMP production, HTRF; read-out: hFPR1 cAMP EC50
Quick rule for you: EC50 under 10 nM gets rule met, anything else gets rule not met.

Dear colleague, could you confirm whether EC50 of COc1cc(F)c([C@@H]2CN(c3nccc(N4CC(C)(O)C4)c3C(F)(F)F)C(=O)[C@H]2NC(=O)N[C@H]2CC[C@H](C(F)F)CC2)c(F)c1 [Example 101] falls below 10 nM? Thanks.
rule not met

Is EC50 of COc1ccc([C@H]2C[C@@H]2NC(=O)N[C@@H]2C(=O)N(c3ncccc3C(F)(F)F)C[C@H]2c2c(F)cc(OC)cc2F)cc1 [Example 35] strictly below 10 nM?
rule not met

# check: EC50 < 10 nM for CCn1cccc(N2C[C@@H](c3c(F)cc(OC)cc3F)[C@H](NC(=O)NC3CCc4cc(OC)ccc4C3)C2=O)c1=O (some centres unmarked) [Example 37]
rule not met

Identify whether the molecule COc1cc(F)c([C@@H]2CN(c3c(OC)ccn(C)c3=O)C(=O)[C@H]2NC(=O)NC2CCc3cc(Cl)ccc3C2)c(F)c1 (some centres unmarked) [Example 8] records EC50 below 10 nM.
rule met

Lab note: EC50 threshold 10 nM. Does this molecule come in strictly under it? COc1cc(F)c([C@@H]2CN(c3cccn(CC(O)C(F)(F)F)c3=O)C(=O)[C@H]2NC(=O)NC2CCc3cc(OC)ccc3C2)c(F)c1 (some centres unmarked) [Example 80]
rule met

hey, is EC50 for COCCn1cccc(N2C(=O)[C@@H](NC(=O)NC3CCc4cc(OC)ccc4C3)[C@H](c3c(F)cc(OC)cc3F)[C@@H]2C)c1=O (some centres unmarked) [Example 29] lower than 10 nM or not?
rule met

Quick check: EC50 of COCCn1nccc(N2C[C@@H](c3c(F)cc(OC)cc3F)[C@H](NC(=O)NC3CCc4cc(OC)ccc4C3)C2=O)c1=O (some centres unmarked) [Example 85] under 10 nM?
rule met

Please determine if COCC(CO)n1cccc(N2C[C@@H](c3c(F)cc(OC)cc3F)[C@H](NC(=O)NC3CCc4cc(OC)ccc4C3)C2=O)c1=O (single isomer, unassigned) [Example 3] is below 10 nM in terms of EC50.
rule not met

State whether 10 nM exceeds EC50 recorded for COc1cc(F)c([C@@H]2CN(c3nccc(N4C[C@@H]5C[C@H]4CN5C)c3C(F)(F)F)C(=O)[C@H]2NC(=O)N[C@H]2CC[C@H](C(F)F)CC2)c(F)c1 (single isomer, unassigned) [Example 97] .
rule not met

Regarding CNC(=O)CNc1ccnc(N2C[C@@H](c3c(F)cc(OC)cc3F)[C@H](NC(=O)N[C@H]3CC[C@H](C(F)F)CC3)C2=O)c1C(F)(F)F [Example 72] , kindly confirm whether its EC50 is beneath 10 nM.
rule not met

Just wondering, is EC50 of COCCn1cccc(N2C[C@@H](c3ccc(OC)cc3)[C@H](NC(=O)NC3CCc4cc(OC)ccc4C3)C2=O)c1=O (some centres unmarked) [Example 42] below 10 nM?
rule met

# TODO verify EC50 < 10 nM strictly for this molecule: COCCn1cccc(N2C[C@@H](c3c(F)cc(OC)cc3F)[C@H](NC(=O)NC3CCc4cc(OC)ccc4C3)C2=O)c1=O (some centres unmarked) [Example 34]
rule met

State whether 10 nM exceeds EC50 recorded for COc1cc(F)c([C@H]2[C@H](NC(=O)NC3CCc4cc(OC)ccc4C3)C(=O)N(c3ncccc3OC)[C@H]2C)c(F)c1 (some centres unmarked) [Example 15] .
rule not met

Is EC50 strictly under 10 nM for the entry COc1cc(F)c([C@@H]2CN(c3nccc(N4C[C@@H](C)N(C)[C@@H](C)C4)c3C(F)(F)F)C(=O)[C@H]2NC(=O)N[C@H]2CC[C@H](C(F)F)CC2)c(F)c1 [Example 25] ?
rule not met

Consider the molecule CCn1cccc(N2C[C@@H](c3c(F)cc(OC)cc3F)[C@H](NC(=O)NC3CCc4cc(OC)ccc4C3(C)C)C2=O)c1=O (some centres unmarked) [Example 61] . Is its EC50 strictly less than 10 nM?
rule not met

For COCCn1cccc(N2C[C@@H](c3ccc(OC)cc3)[C@H](NC(=O)NC3CCc4cc(OC)ccc4C3)C2=O)c1=O (some centres unmarked) [Example 11] , is the recorded EC50 below the cut-off of 10 nM?
rule met

Record COc1cc(F)c([C@@H]2CN(c3nccc(N4CCN(C)CC4)c3C(F)(F)F)C(=O)[C@H]2NC(=O)N[C@H]2CC[C@H](C(F)F)CC2)c(F)c1 [Example 30] : is its EC50 strictly below 10 nM?
rule not met
